# test: Volume of distribution at steady state in cynomolgus monkey at 1 mg/kg, iv and 1 mg/kg, po
# Type: ADME, organism-based, Macaca fascicularis
# reportedConditions: in vivo, read-out: Vdss
measuredEndpoint: Vd (L/kg)
One number for each entry, in L/kg.

Inquiry: # return recorded Vd for input CNC[C@H](CC1CCCCC1)NC(=O)N1CCC[C@@H]([C@@H](OCCNC(=O)OC)c2cccc(Cl)c2)C1.O=C(O)/C=C/C(=O)O
Reply text: 9.8

====

# target: Renin (Homo sapiens)
# Sequence (P00797 whole entry): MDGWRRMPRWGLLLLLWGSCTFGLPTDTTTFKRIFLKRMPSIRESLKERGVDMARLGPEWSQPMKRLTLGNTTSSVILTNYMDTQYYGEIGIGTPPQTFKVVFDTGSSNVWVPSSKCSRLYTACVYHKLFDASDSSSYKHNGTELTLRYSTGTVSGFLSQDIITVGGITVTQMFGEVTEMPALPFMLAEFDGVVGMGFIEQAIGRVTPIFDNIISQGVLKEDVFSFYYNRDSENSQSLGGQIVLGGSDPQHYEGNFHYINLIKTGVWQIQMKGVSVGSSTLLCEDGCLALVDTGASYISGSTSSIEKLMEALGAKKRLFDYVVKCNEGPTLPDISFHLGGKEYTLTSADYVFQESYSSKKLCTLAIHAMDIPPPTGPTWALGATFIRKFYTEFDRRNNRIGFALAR
# test: Inhibition of human recombinant renin using H-Asp-Arg-Val-Tyr-Ile-His-Pro-Phe-His-Leu-Val-Ile-His-Asn-OH as substrate assessed as formation of angiotensin1 product after 2 hrs by competive radioimmunoassay
Lab note: cut-off is 0.3 nM. Strictly less in IC50 is satisfied. Exactly 0.3 nM or more is not satisfied.

> print(dat)
                             smilesnotation          class
1  CNC[C@H](CC1CCOCC1)NC(=O)N1CCC[C@@H]([C@@H](OCCNC(=O)OC)c2cccc(Cl)c2)C1  not satisfied
2  CNC[C@@H](NC(=O)N1CCC[C@@H]([C@@H](OCCNC(=O)OC)c2cccc(Cl)c2)C1)[C@@H](O)C1CCCCC1      satisfied
3  COCCCC[C@@](O)(c1cccc(Cl)c1F)[C@@H]1CCCN(C(=O)NC[C@@H](N)CC2CCCCC2)C1      satisfied
4  CNC[C@H](C[C@H]1CCCOC1)NC(=O)N1CCC[C@@H]([C@@H](OCCNC(=O)OC)c2cccc(Cl)c2)C1  not satisfied

Attention now turns to another entry.
Inquiry: Given CNC[C@H](C[C@@H]1CCCOC1)NC(=O)N1CCC[C@@H]([C@@H](OCCNC(=O)OC)c2cccc(Cl)c2)C1 , is recorded IC50 strictly lower than 0.3 nM?
Reply text: not satisfied

====

# test: Oral bioavailability in rat at 4 mg/kg
# Assay type: ADME, organism-based
# reportedConditions: in vivo
measuredEndpoint: bioavailability (%)
Give bare numbers, in %.

Inquiry: # return recorded bioavailability for input COCCCC[C@@](O)(c1cccc(Cl)c1F)[C@@H]1CCCN(C(=O)NC[C@@H](N)CC2CCCCC2)C1.O=C(O)/C=C/C(=O)O
Reply text: 29.5

====

Would you mind telling me the reported bioavailability of each entry?
# test: Oral bioavailability in cynomolgus monkey at 2 mg/kg
# Format: ADME, organism-based, Macaca fascicularis
# reportedConditions: in vivo
Give bare numbers, in %.

Worked cases, answers included:
compound	valueUnit	bioavailability
COCCCOc1cc(C[C@@H](C[C@H](N)[C@@H](O)C[C@H](C(=O)NCC(C)(C)C(N)=O)C(C)C)C(C)C)ccc1OC.COCCCOc1cc(C[C@@H](C[C@H](N)[C@@H](O)C[C@H](C(=O)NCC(C)(C)C(N)=O)C(C)C)C(C)C)ccc1OC.O=C(O)/C=C/C(=O)O [ALISKIREN FUMARATE]	%	1.4
CNC[C@H](C[C@H]1CCCOC1)NC(=O)N1CCC[C@@H]([C@@H](OCCNC(=O)OC)c2cccc(Cl)c2)C1.O=C(O)/C=C/C(=O)O	%	5.3

Please look at the following compound next.
Inquiry: # return recorded bioavailability for input CN[C@H](CNC(=O)N1CCC[C@@H]([C@@H](OCCNC(=O)OC)c2cccc(Cl)c2)C1)C[C@H]1CCCOC1.O=C(O)/C=C/C(=O)O
Reply text: 18
